Each recorded value in this set is attributed to ChEMBL document CHEMBL2424604.

system: HepG2; assay: Cytotoxicity against human HepG2 cells after 48 hrs by SRB assay; type: functional, cell-based; conditions: HepG2, 48 h
pIC50: −log10 of the molar value.
Please use Fulfilled whenever pIC50 is not below 5, and Not fulfilled whenever it is.

# example entries with known answers
CN1C[C@@H](c2ccc(Cl)cc2Cl)[C@@]2(CCC/C(=C\c3ccc(Cl)cc3Cl)C2=O)[C@@]12C(=O)N(CN1CCOCC1)c1ccccc12	Not fulfilled
Cc1ccc(/C=C2\CCC[C@]3(C2=O)[C@H](c2ccc(C)o2)CN(C)[C@]32C(=O)N(CN3CCOCC3)c3ccccc32)o1	Not fulfilled
Cc1ccc(/C=C2\CCC[C@]3(C2=O)[C@H](c2ccc(C)cc2)CN(C)[C@]32C(=O)N(CN3CCOCC3)c3ccccc32)cc1	Not fulfilled
COc1ccc(/C=C2\CCC[C@]3(C2=O)[C@H](c2ccc(OC)cc2)CN(C)[C@]32C(=O)N(CN3CCOCC3)c3ccccc32)cc1	Not fulfilled

Data request: Could you verify whether the entry "COc1ccc(/C=C2\CCC[C@]3(C2=O)[C@H](c2ccc(OC)c(OC)c2)CN(C)[C@]32C(=O)N(CN3CCOCC3)c3ccccc32)cc1OC" shows pIC50 of no less than 5?
Data returned: Fulfilled

Data request: Could you verify whether the entry "CN1C[C@@H](c2cccs2)[C@@]2(CCC/C(=C\c3cccs3)C2=O)[C@@]12C(=O)N(CN1CCOCC1)c1ccccc12" shows pIC50 of no less than 5?
Data returned: Not fulfilled
